Reference source: PubChem BioAssay (NCI)

- Test system: SK-OV-3 ovarian
- TEST_DETAILS: NCI-60 one-dose screen, 48 h (100 = growth as untreated, 0 = no growth, -100 = all killed)
- CONDITIONS_USED: 10 µM unless noted
The panel holds about 83,000 compounds, 20% with a hit somewhere; the sample as a whole holds those more often.
MEASURE: growth (%)

- O=C1/C(=C/c2ccc(Cl)cc2)CN(C(=O)C(Cl)Cl)C/C1=C\c1ccc(Cl)cc1: -7.85
- COc1cc(-c2ccc[nH]2)[nH]c1/C=C1\N=C(C)C(CC(=O)OCC(C)(C)C)=C1C: -57.3
- Fc1cc2[nH]ncc2c2c3c(c(-c4cn[nH]c4C(F)(F)F)nc12)CCCC3: -24.5
- N=C(N)c1ccc(-c2ccc(-c3cc(Cl)cc(Cl)c3)s2)s1: 88.7
- FC(F)(F)c1[nH]ncc1-c1nc2ccc3[nH]ncc3c2c2c1CCCC2: -3.29
- C=CC(=O)Nc1cccc(Oc2nccc(Nc3nnc(-c4ccc(Br)cc4)s3)n2)c1: 91
- N#CC1=C(N)Oc2c(sc3c(F)cccc23)C1c1ccc([N+](=O)[O-])cc1 (stereo not given): -7.03
- CC(C)n1c2ccc(Br)cc2c2c3c(c4c5ccccc5ccc4c21)C(=O)NC3=O: 105
- O=C(Nc1cccnc1Nc1ccc(Cl)cc1)c1cn(Cc2cccc(Oc3ccccc3)c2)nn1: 53
- COc1ccc(Nc2ncc(C#N)c(NCCCNC(=O)C3CCC3)n2)cc1: 77.6

----------
- Tested on: MOLT-4 leukemia
- TEST_DETAILS: NCI-60 one-dose screen, 48 h
- CONDITIONS_USED: 10 µM unless noted
The panel holds about 83,000 compounds, 20% with a hit somewhere; the sample as a whole holds those more often. Active and inactive are the calls of the source. The calls were made as follows: active = growth percent below 10; inactive = the rest.
Outcome codes: true (1) for active, false (0) for inactive

- C=C(C)[C@@H]1CC[C@]2(C(=O)N3CCNCC3)CC[C@]3(C)[C@H](CC[C@@H]4[C@@](C)(CCC(=O)N5CCNCC5)[C@H](C(=C)C)CC[C@]43C)[C@@H]12: false (0)
- CC(C)n1c2ccc(Br)cc2c2c3c(c4c5ccccc5ccc4c21)C(=O)NC3=O: false (0)
- COc1cc(/C=C/C(=O)N2CCN(C(=O)c3cc(OC)c(OC)c(OC)c3)CC2)ccc1OCCCOc1cc2c(cc1OC)C(=O)N1CCC[C@H]1C=N2: true (1)
- Cc1cccc(NC(=O)N/C(N)=N/c2nc3ccccc3s2)c1: false (0)

----------
- Tested on: TK-10 renal
- TEST_DETAILS: NCI-60 one-dose screen, 48 h (100 = growth as untreated, 0 = no growth, -100 = all killed)
- CONDITIONS_USED: 10 µM unless noted
Compounds without any hit were thinned out: in the full panel of roughly 83,000, 20% have a hit. The source made the active and inactive calls. Rule for the calls: active = growth percent below 10; inactive = the rest.
# maps each entry to its growth
MEASURE: growth

• CCOC(=O)c1c(C)nc2ccccc2c1/C=C/c1ccc(F)cc1 = 82.3% (inactive)
• CCSc1ccnc(N)n1 = 101% (inactive)
• COc1ccc(CNc2ccc3nc(NC(=O)CN4CCCCCC4)sc3c2)cc1 = 117% (inactive)
• Cc1[nH]n(-c2cccc(Cl)c2)c(=O)c1/C=C1\C=c2ccccc2=CC1=O = 17.2% (inactive)
• COc1cc(OC)c2c(=O)c3c(CC=C(C)C)cc(OC)c(O)c3oc2c1 = 82.9% (inactive)
• CC(=O)N1N=C(c2ccc(Nc3nc(Nc4ccc(F)cc4)nc(Nc4ccc(F)cc4)n3)cc2)CC1c1ccc(N(C)C)cc1 (stereo not drawn) = 72.9% (inactive)
• Cn1c(=O)c2[nH]c(SC/C(=N/O)c3ccc(Br)cc3)nc2n(C)c1=O = -30.6% (active)
• Cc1cc(Cl)nc(N2CCN(CCNc3ccnc4cc(Cl)ccc34)CC2)n1 = 48.2% (inactive)
• CN(C)CCCNC(=O)c1cncnc1Nc1ccc2c(ccn2Cc2cccc(F)c2)c1 = 103% (inactive)
• COc1ccc(C/C(C)=C(\c2ccc(O)cc2)c2ccc(OCCN3CCCCC3)cc2)cc1 = 85.2% (inactive)
• N#CC1=C(N)Oc2c(sc3c(F)cccc23)C1c1ccc([N+](=O)[O-])cc1 (stereo not drawn) = -7.94% (active)
• CCCC(O)Cn1ncc(C(=O)OCC)c1NC(=O)NCc1cccc(C(F)(F)F)c1 (stereo not drawn) = 90.4% (inactive)
• COC(=O)c1c2c(c(C)[n+]([O-])c1C)C(=O)C(NCc1ccccc1)=CC2=O = 113% (inactive)
• COC(=O)c1c(C)nc(C)c2c1C(=O)C=C(NCc1ccccc1)C2=O = 119% (inactive)
• C=C1SC(=Nc2ccccc2Cl)N(C(=O)c2sc3ccccc3c2Cl)C1(C)C = 107% (inactive)
• O=C(/C=C/c1ccccc1)N(C1CCCCC1)C1CCCCC1 = 112% (inactive)
• O=C(Cn1nc(-c2cccc3ccccc23)ccc1=O)NCc1cccc(Cl)c1 = 40.7% [50 µM] (inactive)
• CCN(CC)CCOc1ccc(/C(=C(\C)Cc2ccc(OC)cc2)c2ccc(OC(=O)NCc3ccccc3)cc2)cc1 = 71.4% (inactive)
• COc1cc(/C=C/C(=O)N2CCN(C(=O)c3cc(OC)c(OC)c(OC)c3)CC2)ccc1OCCCOc1cc2c(cc1OC)C(=O)N1CCC[C@H]1C=N2 = 6.61% (active)
• CCCC(=O)NC(c1ccc2c(c1)OCO2)c1cc(Cl)c2cccnc2c1O (stereo not drawn) = 37.6% (inactive)
• O=C(NCCCCO)c1cncnc1Nc1ccc2c(ccn2Cc2cccc(F)c2)c1 = 98.7% (inactive)
• COc1ccc(C2CC(c3ccccc3)=NN2C(=O)c2cc(OC)c(OC)c(OC)c2)cc1O (stereo not drawn) = 63.2% (inactive)
• O=C(/C=C/c1cccc(Oc2ccccc2)c1)c1ccc(Nc2nc(Nc3ccc(F)cc3)nc(Nc3ccc(Cl)cc3)n2)cc1 = 130% (inactive)
• C=C1C(=O)O[C@H]2[C@H]1CC/C(COC(=O)NCc1ccc(Cn3c(=O)sn(-c4ccccc4)c3=O)cc1)=C\CC[C@@]1(C)O[C@@H]21 = 4.49% (active)
• O=S(=O)(NCCNc1nccc(-c2c(-c3ccc(F)c(O)c3)nc3sccn23)n1)c1ccc(Cl)cc1 = 44.8% (inactive)
• O=C(NCCNC(c1ccccc1)C(NCCNC(=O)c1ccccc1)c1ccccc1)c1ccccc1 (stereo not drawn) = 97.5% (inactive)
• N#Cc1ccc(O)c(C2=NCC(c3ccc(-c4ccccc4)cc3)O2)c1 (stereo not drawn) = 12.4% (inactive)
• COc1ccccc1S(=O)(=O)Nc1ccc2c3c(cc(CCC(=O)NCCCCNc4cccc5c4C(=O)N(C4CCC(=O)NC4=O)C5=O)cc13)C(=O)N2C (stereo not drawn) = 58% (inactive)
• COc1ccc(-c2cc(-c3cn(-c4cccc(Cl)c4)nc3-c3ccc(OC)cc3)on2)cc1 = -45.1% (active)
• Cc1cc(C)c2c(c1)N(C)c1ncnc(-n3c(C)nc4cc(C)ccc43)c1CC2C (stereo not drawn) = 53.3% (inactive)
• O=S(=O)(Nc1ccc2ccccc2c1)c1ccc(-c2cnc(C3CC3)o2)cc1 = 61.9% (inactive)
• Cn1cc(-c2csc(-c3cn(CCCN4CCOCC4)c4ccc(F)cc34)n2)c2cccnc21 = 75.1% (inactive)
• CCN(CC)c1ccc(-c2cc(-c3cc(OC)c(OC)c(OC)c3)nc(N3CCC(O)CC3)c2C#N)cc1 = 3.06% (active)
• COc1ccc(/C=C(/C(=O)N2CCNCC2)c2cc(OC)c(OC)c(OC)c2)cc1O = 92.4% (inactive)
• Cc1c(C(C)(C)O)cn2ncnc(Oc3ccc(NC(=O)Nc4ccc(Cl)c(C(F)(F)F)c4)c(F)c3)c12 = 85.1% (inactive)
• O=C1/C(=C/c2ccc(Cl)cc2)CN(C(=O)C(Cl)Cl)C/C1=C\c1ccc(Cl)cc1 = -83.7% (active)
• COc1ccc(-c2cc(C(=O)N3N=C(c4ccc(N)cc4)CC3c3ccc(Cl)cc3)c3ccccc3n2)cc1 (stereo not drawn) = 35.6% (inactive)
• Fc1cccc(CNc2c3ccccc3nc3ccccc23)c1 = 64.1% (inactive)

----------
- Tested on: A498 renal
- TEST_DETAILS: NCI-60 one-dose screen, 48 h (100 = growth as untreated, 0 = no growth, -100 = all killed)
- CONDITIONS_USED: 10 µM unless noted
The panel holds about 83,000 compounds, 20% with a hit somewhere; the sample as a whole holds those more often.
MEASURE: growth (%)

- COc1cc(C=C2C(=O)NC(=S)NC2=O)cc(CN2CCCC2)c1O: 101
- O=C(Nc1cc(Cl)ccc1O)c1ccccc1Nc1ccnc(C(F)(F)F)c1: 53.7
- COc1cc2c(c(OC)c1OC)CCC(c1cccc(C(=O)Nc3ccc(Br)cc3)c1)O2 (stereo unspecified): -3.18
- Nc1cccc(-c2ccc(COc3ccc(CC4SC(=O)NC4=O)cc3)cc2)c1 (stereo unspecified): 110
- COC(=O)c1ccc2cc(OC)c(OC)cc2c1: 75.4
- CC(C)(C)c1ccc(C(=O)N/N=C/c2ccc(O)cc2O)cc1: 13.6
- Ic1ccc(Nc2nc3nonc3nc2Nc2ccc(I)cc2)cc1: -22
- Cc1cccc(NC(=O)N/C(N)=N/c2nc3ccccc3s2)c1: -3.86
- C#CCOc1cccc(Nc2ncnc3c2ncn3C2CCN(C(=O)CCl)C2)c1 (stereo unspecified): 85.9
- O=C(CSc1nnnn1-c1ccccc1)Nc1ccc(Oc2ccccc2)cc1: 103
- N#Cc1c(-c2ccc(Cl)cc2)nc(NN=Cc2ccc[nH]2)nc1N1CCOCC1: 31.7
- O=C1Nc2ccc(Cl)cc2/C1=C/c1ccc[nH]1: 134
- O=C(/C=C/c1ccccc1)c1cccc2ccccc12: 50.1
- Cc1ccc2c(c1)nc(C)n2-c1ncnc2c1CC(C)c1cc(O)ccc1N2C (stereo unspecified): 6.65
- CC(=O)O[C@H]1CC[C@]2(C)[C@H]3CC=C4[C@@H]5CC(C)(C)CC[C@]5(C(=O)N5CCN(CCC#N)CC5)CC[C@@]4(C)[C@]3(C)CC[C@H]2C1(C)C: 5.98
- CC/C(=C(/c1ccc(O)cc1)c1ccc(OCCN2CCCCC2)cc1)c1ccc(OC)cc1: 83.2
- Clc1ccc(Nc2ncc(Cc3cccc(Cl)c3Cl)s2)cc1: 93.7
- O=C(/C=C/c1ccco1)Nc1ncc(Cc2cc(Cl)ccc2Cl)s1: 10.3
- Cc1cc(NCCCNc2ccnc3cc(Cl)ccc23)nc(Nc2ccc(C(=O)N3CCCCC3)cc2)n1: 66.9
- COC(=O)c1c(C)nc(C)c2c1C(=O)C=C(NCc1ccccc1)C2=O: 124
- CN(C)C1CN(C(=O)c2cc(-c3ccc4ncnc(N5CCc6cc(F)c(Cl)cc65)c4c3)cnc2N)C1: -78.2
